Target: murine iNOS (Mus musculus, UniProt P29477)
Construct: made in house; host or cells: E. coli (plasmid pCWiNOS)
Experiment: NOS enzyme inhibitory assay (hemoglobin capture), iNOS
Assay type: biochemical
Conditions: Table 1a; apparent Ki calculated from IC50, Km […]; read-out: calc. Ki iNOS
Source text: All of the NOS isoforms used were recombinant enzymes overexpressed in E. coli from different sources. Nitric oxide formation from NOS was monitored by the hemoglobin capture assay as described in the literature. Enzyme inhibitory assay. All of the NOS isoforms used are recombinant enzymes overexpressed in E. coli from different sources. […] Nitric oxide formation from NOS was monitored by the hemoglobin capture assay as described previously. […]
Recorded log10 of Ki by entry
In our notation, the value equals log10 of Ki in µM.

Query: Lab request: please report log10 of Ki under test system murine iNOS (Mus musculus, UniProt P29477) for Cl.Cl.Cl.Cl.Nc1cccc(CC2CNCC2NCC2CCCN2)n1 (centres unmarked) [Compound P-23]
Result: 2.02

Query: Lookup: log10 of Ki / murine iNOS (Mus musculus, UniProt P29477) / Cl.Cl.Cl.Nc1cccc(C[C@H]2CNC[C@H]2NCCCc2ccccc2)n1 (racemic)
Result: 2.22

Query: murine iNOS (Mus musculus, UniProt P29477) / log10 of Ki / Nc1cccc(C[C@H]2CNC[C@@H]2NCCNCc2ccccc2)n1 (racemic) : value?
Result: 2.22

Query: Please provide the recorded log10 of Ki for Cl.Cl.Cl.Nc1cccc(C[C@H]2CN(Cc3ccccc3)C[C@@H]2NCCCO)n1 (racemic) , tested on murine iNOS (Mus musculus, UniProt P29477).
Result: 3.24

Query: # get_value(readout= log10 of Ki, system= murine iNOS (Mus musculus, UniProt P29477)) for Cc1cc(N)nc(C[C@H]2CNC[C@H]2NCCN)c1.Cl.Cl.Cl.Cl (racemic)
Result: 0.74

Query: Item: Cl.Cl.Cl.Cl.NCCN1CC(Cc2cccc(N)n2)C(NCCCc2ccccc2)C1 (racemic) [Compound P-7] Test system: murine iNOS (Mus musculus, UniProt P29477) Read-out: log10 of Ki Value: ?
Result: 2.64

Query: Give log10 of Ki (murine iNOS (Mus musculus, UniProt P29477)) of the following compound: Cl.Cl.Cl.Nc1cccc(CC2CNCC2NCCCc2ccccc2)n1 (racemic)
Result: 2.16

Now let's try a different one.
Query: I'm curious: which log10 of Ki was measured for Nc1cccc(CC2CNCC2NC2CCN(Cc3ccccc3)C2)n1 (centres unmarked) [Compound P-38] tested on murine iNOS (Mus musculus, UniProt P29477)?
Result: 2.63

###

Recorded Ki, one value per entry.
molecular target: murine iNOS (Mus musculus); construct: made in house; host or cells: E. coli (plasmid pCWiNOS); experiment: NOS enzyme inhibitory assay (hemoglobin capture), iNOS; assay type: biochemical; details: Table 1b; read-out: Ki iNOS

Here's what some known entries look like.
Query: Recorded Ki for Cc1cc(N)nc(CC2CNCC2NCCNCc2ccc(Cl)c(Cl)c2)c1.Cl.Cl.Cl.Cl (racemic) [Compound P-60] , please?
Result: 3.56 µM

Query: Quick one: Ki for Cc1cc(N)nc(CC2CNCC2NCCNCc2cccc(C(F)(F)F)c2)c1.Cl.Cl.Cl.Cl (racemic) [Compound P-58] ?
Result: 58.7 µM

Query: Using the record for Cl.Cl.Cl.Cl.Nc1nc(CC2CNCC2NCCNCc2ccc(Cl)cc2)cs1 (racemic) , report its Ki.
Result: 3.4 µM

Next:
Query: Dear colleague, I am looking for the recorded Ki of the following molecule: Cc1cc(N)nc(CC2CNCC2N(C)CCN(C)CCc2cccc(F)c2)c1.Cl.Cl.Cl.Cl (racemic)
Result: 56.6 µM

Values compiled from patent US7994326B2.
